molecular target: Dual specificity protein phosphatase 6 (Homo sapiens); assay: DUSP6 inhibitors restoring Erk phosphorylation by chemical complementation, primary imaging in DUSP6-transfected HeLa (AID 609); conditions: HeLa MKP-3 transfected, phospho-Erk imaging KS statistic; at 10 µM; active compounds read high; cells stimulated with TPA for 15 min;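 further: phospho-Erk level distribution per well compared with pooled transfected vehicle control wells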

[
  {
    "Molecule": "COc1ccc(NC2CC(=O)N(C)C2=O)cc1 (stereo unspecified)",
    "Test Target": "Dual specificity protein phosphatase 6 (Homo sapiens)",
    "inhibition / %": 7.42
  },
  {
    "Molecule": "CC1CCCCN1C(=O)C12CCC(C)(/C(=N/O)C1)C2(C)C (stereo unspecified)",
    "Test Target": "Dual specificity protein phosphatase 6 (Homo sapiens)",
    "inhibition / %": 5.26
  },
  {
    "Molecule": "CC(=O)O[C@]1(C(C)=O)CC[C@H]2[C@@H]3C=C(C)C4=CC(=O)CC[C@]4(C)[C@H]3CC[C@@]21C",
    "Test Target": "Dual specificity protein phosphatase 6 (Homo sapiens)",
    "inhibition / %": 7.39
  },
  {
    "Molecule": "COc1cccc(OC)c1OCC(C)CNCC1CCCO1 (stereo unspecified)",
    "Test Target": "Dual specificity protein phosphatase 6 (Homo sapiens)",
    "inhibition / %": 9.39
  },
  {
    "Molecule": "O=C(O)CC(NCc1ccco1)C(=O)OCC1CCCO1 (stereo unspecified)",
    "Test Target": "Dual specificity protein phosphatase 6 (Homo sapiens)",
    "inhibition / %": 5.26
  },
  {
    "Molecule": "CC1(C)Cc2c(c(N3CCOCC3)nc3snc(N)c23)CO1",
    "Test Target": "Dual specificity protein phosphatase 6 (Homo sapiens)",
    "inhibition / %": 1.48
  },
  {
    "Molecule": "Nc1ccc(S(=O)(=O)Nc2ccccn2)cc1",
    "Test Target": "Dual specificity protein phosphatase 6 (Homo sapiens)",
    "inhibition / %": 12.4
  },
  {
    "Molecule": "CNC(=O)c1cc2ccccc2o1",
    "Test Target": "Dual specificity protein phosphatase 6 (Homo sapiens)",
    "inhibition / %": -5.26
  },
  {
    "Molecule": "CCC(=O)Oc1ccc(C(CC)C(CC)c2ccc(OC(=O)CC)cc2)cc1 (stereo unspecified)",
    "Test Target": "Dual specificity protein phosphatase 6 (Homo sapiens)",
    "inhibition / %": -4.44
  },
  {
    "Molecule": "CCOC(=O)C1=C(CSc2nc(-c3ccncc3)ccc2C#N)OC(N)=C(C#N)C1c1cccnc1 (stereo unspecified)",
    "Test Target": "Dual specificity protein phosphatase 6 (Homo sapiens)",
    "inhibition / %": -8.95
  },
  {
    "Molecule": "OCCN(CCO)c1ncnc2c1sc1nc(N3CCOCC3)c3c(c12)CCCC3",
    "Test Target": "Dual specificity protein phosphatase 6 (Homo sapiens)",
    "inhibition / %": 7.73
  }
]

----------
target: Voltage-gated potassium channel subunit beta-2 (Rattus norvegicus) (UniProt P62483); experiment: KvBeta positive modulators, primary screen, biochemical, NADPH fluorescence (AID 623); conditions: Recombinant KvBeta, NADPH fluorescence decrease slope, 10 min; at 10 µM; active compounds read low;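 further: fluorescence intensity change per second fitted from 20 to 320 s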
Sequence (P62483 whole entry, looked up): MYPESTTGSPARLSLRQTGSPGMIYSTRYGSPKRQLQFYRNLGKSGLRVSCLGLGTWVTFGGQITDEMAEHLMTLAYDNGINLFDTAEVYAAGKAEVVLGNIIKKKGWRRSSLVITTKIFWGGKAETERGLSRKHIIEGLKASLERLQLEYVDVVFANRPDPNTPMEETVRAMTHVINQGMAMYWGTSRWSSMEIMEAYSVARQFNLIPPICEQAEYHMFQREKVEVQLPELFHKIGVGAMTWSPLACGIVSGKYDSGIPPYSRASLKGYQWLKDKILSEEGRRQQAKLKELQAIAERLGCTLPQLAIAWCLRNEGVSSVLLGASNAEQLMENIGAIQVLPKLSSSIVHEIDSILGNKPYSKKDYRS
This listing pairs compounds with measured NADPH fluorescence slope.
Endpoint Label: NADPH fluorescence slope

[
  {
    "Compound": "Cc1ccc2cc(CN(C(=O)c3ccco3)c3ccccc3)c(=O)[nH]c2c1",
    "Readout Number": "-4.7e-05"
  },
  {
    "Compound": "COc1ccc(OC(=O)c2cc3ccccc3o2)cc1",
    "Readout Number": "-3.8e-05"
  },
  {
    "Compound": "CC(=O)OCC[N+](C)(C)C",
    "Readout Number": "1.1e-05"
  },
  {
    "Compound": "CC1(C)NC(=O)N(CC(O)Cn2nnc3ccccc32)C1=O (configuration not stated)",
    "Readout Number": "2.5e-05"
  },
  {
    "Compound": "Cc1nn(C)cc1C1C2=C(CC(C)(C)CC2=O)OC2=C1C(=O)CC(C)(C)C2",
    "Readout Number": "-6.9e-06"
  },
  {
    "Compound": "CCC1CCCCN1c1nc(-c2ccncc2)nc2ccccc12 (configuration not stated)",
    "Readout Number": -0.000148
  },
  {
    "Compound": "CCCCOc1ccc(CN(C)c2ncnc(N)n2)cc1",
    "Readout Number": -0.00011
  },
  {
    "Compound": "Cn1c(=O)[nH]c(=O)c2c1nc(N(CCO)Cc1ccccc1)n2Cc1ccccc1Cl",
    "Readout Number": "-6.1e-05"
  },
  {
    "Compound": "Cc1c(C)c2cc(Cl)c(O)c(CN3CCN(C)CC3)c2oc1=O",
    "Readout Number": "3.5e-05"
  },
  {
    "Compound": "Clc1ccccc1CN1CCc2sccc2C1",
    "Readout Number": "-5e-05"
  },
  {
    "Compound": "COc1ccc(OC)c2c(N)c(C#N)c(C(F)(F)C(F)(F)F)nc12",
    "Readout Number": "-3.3e-05"
  },
  {
    "Compound": "COC(=O)c1sc(NC(=O)C(C)C)c(C(=O)OC)c1C",
    "Readout Number": "-1.5e-05"
  }
]

----------
target: Voltage-gated potassium channel subunit beta-2 (Rattus norvegicus) (UniProt P62483); experiment: KvBeta enzyme negative modulators, primary screen, biochemical, NADPH fluorescence (AID 622); details: recombinant KvBeta, 4-cyanobenzaldehyde reduction, at 10 µM, active compounds read high;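 further: slope of raw intensity against log time taken from 70 to 1610 s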
# fluorescence slope >= -0.4 gives met, anything below gives not met

[
  {
    "Molecule": "COc1nc(NS(=O)(=O)c2ccc(C)cc2)nc(C)c1Cl",
    "Class": "met"
  },
  {
    "Molecule": "CCCOc1ccc(N2C(=O)CC(N(CCC)C(=O)CCC(=O)O)C2=O)cc1 (stereo unspecified)",
    "Class": "met"
  },
  {
    "Molecule": "CCCCOc1ccc(OCCCN2CCOCC2)cc1",
    "Class": "not met"
  },
  {
    "Molecule": "CCOC(=O)c1c(C)n(C)c2ccc(OC)c(NC(=O)CN3CCN(Cc4ccccc4)CC3)c12",
    "Class": "not met"
  },
  {
    "Molecule": "CCOc1ccc(CSC(CC(=O)O)C(=O)O)cc1 (stereo unspecified)",
    "Class": "met"
  },
  {
    "Molecule": "CN(Cc1c(O)ccc2c1oc(=O)c1ccccc12)C1CCCCC1",
    "Class": "met"
  }
]

----------
experiment: inhibitors of TNFa-induced NFkB p65 translocation, primary screen, imaging, HUVEC, MLSMR starter and 10KST1 sets (AID 438); settings: HUVEC TNFa-induced p65 nuclear translocation; at 2 µM, active compounds read high, 0% TNFa-plus-vehicle, 100% no-TNFa wells;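 further: compound added about 3h40 before a 20 min TNFalpha stimulation; signal is the nuclear over cytoplasmic p65 intensity ratio per well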
This listing pairs compounds with measured inhibition.
Endpoint Label: inhibition (%)

[
  {
    "Compound": "CNCCC=C1c2ccccc2CCc2ccccc21",
    "Endpoint Label": "inhibition",
    "Readout Number": 0.8
  },
  {
    "Compound": "CC(C)(C)NCC(=O)c1c[nH]c2ccccc12",
    "Endpoint Label": "inhibition",
    "Readout Number": -1.7
  },
  {
    "Compound": "CC(CN1CCN(C)CC1)OC(=O)c1ccc(Cl)cc1Cl (stereo unspecified)",
    "Endpoint Label": "inhibition",
    "Readout Number": 2.7
  },
  {
    "Compound": "Cc1ccc(OCc2nnc(NC(=O)c3ccco3)s2)c(C)c1",
    "Endpoint Label": "inhibition",
    "Readout Number": -7.3
  },
  {
    "Compound": "CCN1CCc2c(C#N)c(N3CCOCC3)nc(NCc3ccccc3)c2C1",
    "Endpoint Label": "inhibition",
    "Readout Number": 9.3
  },
  {
    "Compound": "Cc1nc(-c2coc3cc(OCC(=O)O)ccc3c2=O)cs1",
    "Endpoint Label": "inhibition",
    "Readout Number": -9
  },
  {
    "Compound": "COc1ccc2c(c1OC)C(=O)N1c3ccccc3C(=O)N(c3ccccc3)C21 (stereo unspecified)",
    "Endpoint Label": "inhibition",
    "Readout Number": -9.6
  },
  {
    "Compound": "COCCNc1oc(-c2ccc(Cl)cc2)nc1C#N",
    "Endpoint Label": "inhibition",
    "Readout Number": -6.3
  },
  {
    "Compound": "COCc1cc(C)nc(SCC(=O)Nc2ccc(C)c(C)c2)c1C#N",
    "Endpoint Label": "inhibition",
    "Readout Number": -2.6
  },
  {
    "Compound": "Fc1ccccc1-c1nc(NCCCN2CCOCC2)c2ccccc2n1",
    "Endpoint Label": "inhibition",
    "Readout Number": -0.7
  },
  {
    "Compound": "CC(=O)O[C@]1(C(C)=O)CC[C@H]2[C@@H]3C=C(C)C4=CC(=O)CC[C@]4(C)[C@H]3CC[C@@]21C",
    "Endpoint Label": "inhibition",
    "Readout Number": -4.5
  }
]
